EXPERIMENTAL SYSTEM: NS3 genotype 3a protease (UniProt Q81258)
Construct: Purified NS3 protease domain (amino acids 1-181) of the genotype 1b and 3a virus were generated as above; fused on or other part: N-terminal hexahistidine tag and rTEV protease cleavage site (vector p28-N6H-Tev-NS3(181)3)
EXPERIMENTAL PROTOCOL: Ki determination, NS3 protease genotype 3a (fluorogenic depsipeptide substrate)
Format: biochemical, hepatitis C virus
RUN CONDITIONS: read-out: Ki 3A, 200 pM enzyme, 20 μM NS4A peptide, 2 μM substrate
Collected Ki values appear next to each entry.
OBSERVATION TYPE: Ki (nM)

>>> result_value("COc1ccc2nc3c(nc2c1)O[C@H]1CN(C(=O)[C@H](C(C)(C)C)NC(=O)O[C@@H]2C[C@H]2CCCCC3)[C@H](C(=O)N[C@]2(C(=O)NS(=O)(=O)C3CC3)C[C@H]2CCF)[C@@H]1C")
1.3
>>> result_value("CC[C@@H]1C[C@]1(NC(=O)[C@@H]1[C@H](C)[C@@H]2CN1C(=O)[C@H](C(C)(C)C)NC(=O)O[C@@H]1C[C@H]1CCCCCc1nc3ccc(OC)cc3nc1O2)C(=O)NS(=O)(=O)C1CC1")
0.53
>>> result_value("COc1ccc2nc3c(nc2c1)O[C@H]1CN(C(=O)[C@H](C(C)(C)C)NC(=O)O[C@@H]2C[C@H]2CCCCC3)[C@H](C(=O)N[C@]2(C(=O)NS(=O)(=O)C3CC3)C[C@H]2CC(F)F)[C@@H]1C")
0.92
>>> result_value("CC[C@@H]1[C@@H]2CN(C(=O)[C@H](C3CCCC3)NC(=O)O[C@@H]3C[C@H]3CCCCCc3nc4ccc(OC)cc4nc3O2)[C@@H]1C(=O)N[C@]1(C(=O)NS(=O)(=O)C2CC2)C[C@H]1C(F)F")
0.3
>>> result_value("COc1ccc2nc3c(nc2c1)O[C@H]1CN(C(=O)[C@H](C(C)(C)C)NC(=O)O[C@@H]2C[C@@H]4C[C@@H]4[C@H]2CCCCC3)[C@H](C(=O)N[C@]2(C(=O)NS(=O)(=O)C3CC3)C[C@H]2CC(F)F)[C@@H]1C")
0.28
